- ASSAY_TARGET: TYK2 (Homo sapiens (Human), UniProt P29597)
- Sequence (P29597 whole entry): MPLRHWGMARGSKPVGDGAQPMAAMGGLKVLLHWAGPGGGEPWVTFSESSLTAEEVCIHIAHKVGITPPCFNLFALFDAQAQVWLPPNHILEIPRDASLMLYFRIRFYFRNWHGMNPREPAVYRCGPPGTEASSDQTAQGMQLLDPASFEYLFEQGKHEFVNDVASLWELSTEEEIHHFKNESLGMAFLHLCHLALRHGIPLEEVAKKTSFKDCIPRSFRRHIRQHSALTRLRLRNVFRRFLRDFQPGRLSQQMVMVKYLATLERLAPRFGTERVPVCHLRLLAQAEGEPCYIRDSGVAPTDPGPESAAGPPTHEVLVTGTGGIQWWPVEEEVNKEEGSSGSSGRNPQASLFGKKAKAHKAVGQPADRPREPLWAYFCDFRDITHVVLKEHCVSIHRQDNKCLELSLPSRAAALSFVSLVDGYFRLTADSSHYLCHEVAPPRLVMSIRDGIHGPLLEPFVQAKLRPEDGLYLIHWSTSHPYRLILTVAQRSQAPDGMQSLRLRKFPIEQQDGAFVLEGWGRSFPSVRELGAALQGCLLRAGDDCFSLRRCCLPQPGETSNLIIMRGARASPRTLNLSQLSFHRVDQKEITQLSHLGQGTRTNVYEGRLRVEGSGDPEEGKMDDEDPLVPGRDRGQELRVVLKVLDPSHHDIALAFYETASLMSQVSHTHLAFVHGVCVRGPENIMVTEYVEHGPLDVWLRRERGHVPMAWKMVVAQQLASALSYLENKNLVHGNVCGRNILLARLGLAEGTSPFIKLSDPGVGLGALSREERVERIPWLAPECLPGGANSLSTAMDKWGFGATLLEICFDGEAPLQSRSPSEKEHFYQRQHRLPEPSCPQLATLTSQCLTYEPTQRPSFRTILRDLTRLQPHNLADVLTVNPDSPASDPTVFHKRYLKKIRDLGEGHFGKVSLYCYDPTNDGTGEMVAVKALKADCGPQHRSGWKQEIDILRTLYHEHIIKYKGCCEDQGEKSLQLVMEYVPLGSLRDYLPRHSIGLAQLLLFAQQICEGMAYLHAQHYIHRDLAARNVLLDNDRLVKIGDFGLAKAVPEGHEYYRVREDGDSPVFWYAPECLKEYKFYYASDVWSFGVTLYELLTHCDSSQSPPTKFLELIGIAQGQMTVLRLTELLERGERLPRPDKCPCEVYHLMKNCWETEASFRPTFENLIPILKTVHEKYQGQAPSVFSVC
- PROTOCOL_SUMMARY: Biochemical JAK kinase assay (LanthaScreen), Tyk2
- CONDITION_SUMMARY: read-out: Tyk2 pKi (converted)
MEASUREMENT_KIND: Ki

CCc1cc(O)ccc1-c1ccc2c(-c3nc(C4=CCCNC4)c[nH]3)n[nH]c2c1 ... 1 to 10 nM
CCc1cc(O)ccc1-c1ccc2c(-c3nc(C4=CCN(CCN(C)C)C4)c[nH]3)n[nH]c2c1F ... 1 to 10 nM
CCc1cc(O)ccc1-c1ccc2c(-c3nc(C4=CCN(C(=O)CN)CC4)c[nH]3)n[nH]c2c1 ... 1 to 10 nM
CCc1cc(O)ccc1-c1ccc2c(-c3nc(C4=CC5COCC(C4)N5)c[nH]3)n[nH]c2c1 (stereo not drawn) ... 1 to 10 nM
CCc1cc(O)ccc1-c1ccc2c(-c3nc(C4=CCCN(C)C4)c[nH]3)n[nH]c2c1 ... 1 to 10 nM
CCc1cc(O)ccc1-c1ccc2c(-c3nc(C4=CCN(C5COC5)C4)c[nH]3)n[nH]c2c1F ... 1 to 10 nM
CCc1cc(O)ccc1-c1ccc2c(-c3nc(C4=CCN(C(=O)[C@@H]5CCCN5)CC4)c[nH]3)n[nH]c2c1F ... 1 to 10 nM
CCc1cc(O)ccc1-c1ccc2c(-c3nc(C4=C[C@@H](COC)NC4)c[nH]3)n[nH]c2c1F ... 10 to 100 nM

Notebook: CCc1cc(O)ccc1-c1ccc2c(-c3nc(C4=CCN(C(=O)[C@@H](N)C(C)(C)O)CC4)c[nH]3)n[nH]c2c1F , Ki read as 10 to 100 nM

Notebook: CCc1cc(O)ccc1-c1ccc2c(-c3nc(C4=CCN(S(=O)(=O)C5CNC5)CC4)c[nH]3)n[nH]c2c1 , Ki read as 1 to 10 nM

Notebook: CCc1cc(O)ccc1-c1ccc2c(-c3nc(C4=CCNC4)c[nH]3)n[nH]c2c1F , Ki read as 1 to 10 nM

Notebook: CCc1cc(O)ccc1-c1ccc2c(-c3nc(C4=CCNCC4)c[nH]3)n[nH]c2c1F , Ki read as 1 to 10 nM

Notebook: CCc1cc(O)ccc1-c1ccc2c(-c3nc(C4=CCN(C[C@@H]5COCCN5)CC4)c[nH]3)n[nH]c2c1 , Ki read as 1 to 10 nM

Notebook: CCc1cc(O)ccc1-c1ccc2c(-c3nc(C4=CCNCC4C)c[nH]3)n[nH]c2c1 (stereo not drawn) , Ki read as 0.1 to 1 nM

Notebook: CCc1cc(O)ccc1-c1ccc2c(-c3nc(C4=CCN([C@H]5CC[C@@H](O)CC5)C4)c[nH]3)n[nH]c2c1F , Ki read as 0.1 to 1 nM

====

- Test system: IL-13 induced STAT6 phosphorylation in BEAS-2B human lung epithelial cells
- PROTOCOL_SUMMARY: Cellular JAKI potency assay (BEAS-2B)
- Assay type: cell-based
- CONDITION_SUMMARY: Homo sapiens, BEAS-2B, BEAS-2B cells, read-out: BEAS2B pIC50 (converted)
IC50 overview

Recorded IC50, per entry:
CCc1cc(O)ccc1-c1ccc2c(-c3nc(C4=C(C(=O)OC)CCNC4)c[nH]3)n[nH]c2c1F [Example 295] ... 3.16 to 10 nM
CCc1cc(O)ccc1-c1ccc2c(-c3nc(C4=CCN(C(=O)[C@@H](N)C(C)(C)O)CC4)c[nH]3)n[nH]c2c1F [Example 158] ... 31.6 to 100 nM

Notebook: CCc1cc(O)ccc1-c1ccc2c(-c3nc(C4=CCCN(CC(=O)NC)C4)c[nH]3)n[nH]c2c1 [Example 88] , IC50 read as 10 to 31.6 nM

Notebook: CCc1cc(O)ccc1-c1ccc2c(-c3nc(C4=CCN(Cc5ccccc5)CC4)c[nH]3)n[nH]c2c1 [Example 130] , IC50 read as 31.6 to 100 nM

Notebook: CCc1cc(O)ccc1-c1ccc2c(-c3nc(C4=CCN(C(=O)OC)C4)c[nH]3)n[nH]c2c1 [Example 168] , IC50 read as 10 to 31.6 nM

Notebook: CCc1cc(O)ccc1-c1ccc2c(-c3nc(C4=CCN(C5CN(C)C5)CC4)c[nH]3)n[nH]c2c1 [Compound 15] , IC50 read as 10 to 31.6 nM

Notebook: CCc1cc(O)ccc1-c1ccc2c(-c3nc(C4=CCCN(C5CCCNC5)C4)c[nH]3)n[nH]c2c1F (stereo not shown) [Example 216] , IC50 read as 100 to 316 nM

====

- Test system: IL-13 induced STAT6 phosphorylation in BEAS-2B human lung epithelial cells
- PROTOCOL_SUMMARY: Cellular JAKI potency assay (BEAS-2B)
- Format: cell-based
- CONDITION_SUMMARY: Homo sapiens, BEAS-2B, BEAS-2B cells, read-out: BEAS2B pIC50 (converted)
MEASUREMENT_KIND: IC50

Recorded IC50, per entry:
CCc1cc(O)c(C)cc1-c1ccc2c(-c3nc(C4=CCNC4)c[nH]3)n[nH]c2c1F ... 10 to 31.6 nM
CCc1cc(O)ccc1-c1ccc2c(-c3nc(C4=CCN(CCN5CCOCC5)C4)c[nH]3)n[nH]c2c1F ... 10 to 31.6 nM

Notebook: CCc1cc(O)ccc1-c1ccc2c(-c3nc(C4=CCN(C5CCNC5=O)C4)c[nH]3)n[nH]c2c1 (stereo not drawn) , IC50 read as 10 to 31.6 nM

Notebook: CCc1cc(O)ccc1-c1ccc2c(-c3nc(C4=C[C@@H](C(=O)OC)NC4)c[nH]3)n[nH]c2c1F , IC50 read as 10 to 31.6 nM

====

- ASSAY_TARGET: JAK1 (Homo sapiens (Human), UniProt P23458)
- Sequence (P23458 whole entry): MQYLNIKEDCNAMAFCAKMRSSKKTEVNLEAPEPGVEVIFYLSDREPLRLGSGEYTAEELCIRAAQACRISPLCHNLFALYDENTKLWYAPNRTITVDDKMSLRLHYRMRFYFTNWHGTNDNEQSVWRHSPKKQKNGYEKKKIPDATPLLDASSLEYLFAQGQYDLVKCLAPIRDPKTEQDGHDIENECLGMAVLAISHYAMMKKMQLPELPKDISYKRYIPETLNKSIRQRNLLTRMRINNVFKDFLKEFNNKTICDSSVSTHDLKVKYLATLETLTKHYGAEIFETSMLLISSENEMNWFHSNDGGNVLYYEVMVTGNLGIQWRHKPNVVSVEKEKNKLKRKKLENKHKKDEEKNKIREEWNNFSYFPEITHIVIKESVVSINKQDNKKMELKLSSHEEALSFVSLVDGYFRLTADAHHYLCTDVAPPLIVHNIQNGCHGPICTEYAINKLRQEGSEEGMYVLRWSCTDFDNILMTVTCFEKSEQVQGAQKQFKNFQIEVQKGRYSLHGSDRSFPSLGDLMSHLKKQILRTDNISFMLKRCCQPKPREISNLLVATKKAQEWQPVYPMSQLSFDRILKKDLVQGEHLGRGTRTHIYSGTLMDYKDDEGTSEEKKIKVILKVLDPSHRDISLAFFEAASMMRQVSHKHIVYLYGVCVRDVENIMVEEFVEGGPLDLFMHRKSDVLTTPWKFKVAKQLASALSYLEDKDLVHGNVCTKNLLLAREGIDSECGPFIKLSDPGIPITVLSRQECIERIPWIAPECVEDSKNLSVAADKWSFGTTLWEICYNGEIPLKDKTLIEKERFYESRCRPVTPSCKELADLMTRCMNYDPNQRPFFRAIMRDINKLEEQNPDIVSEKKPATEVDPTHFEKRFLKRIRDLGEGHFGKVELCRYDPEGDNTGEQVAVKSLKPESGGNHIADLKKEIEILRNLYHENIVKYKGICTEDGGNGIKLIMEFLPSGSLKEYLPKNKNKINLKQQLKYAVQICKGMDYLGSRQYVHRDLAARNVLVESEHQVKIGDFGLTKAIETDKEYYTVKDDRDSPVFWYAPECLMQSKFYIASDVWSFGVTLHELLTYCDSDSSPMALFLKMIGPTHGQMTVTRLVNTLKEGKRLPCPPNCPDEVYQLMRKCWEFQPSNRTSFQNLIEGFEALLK
- PROTOCOL_SUMMARY: Biochemical JAK kinase assay (LanthaScreen), JAK1
- CONDITION_SUMMARY: read-out: JAK1 pKi (converted)
Ki overview

Notebook: CCc1cc(O)ccc1-c1ccc2c(-c3nc(C4=CCCN(C[C@@H]5COCCN5)C4)c[nH]3)n[nH]c2c1 , Ki read as 0.1 to 1 nM

Notebook: CCc1cc(O)ccc1-c1ccc2c(-c3nc(C4=CCN(Cc5ccn[nH]5)CC4)c[nH]3)n[nH]c2c1F , Ki read as 0.1 to 1 nM

Notebook: CCc1cc(O)ccc1-c1ccc2c(-c3nc(C4=CCN(S(C)(=O)=O)C4)c[nH]3)n[nH]c2c1F , Ki read as 1 to 10 nM

====

Ki overview
- ASSAY_TARGET: JAK1 (Homo sapiens (Human))
- PROTOCOL_SUMMARY: Biochemical JAK kinase assay (LanthaScreen), JAK1
- CONDITION_SUMMARY: read-out: JAK1 pKi (converted)

Recorded Ki, per entry:
CCc1cc(O)ccc1-c1ccc2c(-c3nc(C4=C(C)CNCC4)c[nH]3)n[nH]c2c1 [Example 224] ... 0.1 to 1 nM
CCc1cc(O)ccc1-c1ccc2c(-c3nc(C4=CCN(C(=O)NC)C4)c[nH]3)n[nH]c2c1 [Example 169] ... 0.1 to 1 nM

Notebook: CCOC[C@H]1C=C(c2c[nH]c(-c3n[nH]c4c(F)c(-c5ccc(O)cc5CC)ccc34)n2)CN1 [Example 307] , Ki read as 0.1 to 1 nM

====

- Tested on: IL-13 induced STAT6 phosphorylation in BEAS-2B human lung epithelial cells
- PROTOCOL_SUMMARY: Cellular JAKI potency assay (BEAS-2B)
- Assay type: cell-based
- CONDITION_SUMMARY: Homo sapiens, BEAS-2B, BEAS-2B cells, read-out: BEAS2B pIC50 (converted)
MEASUREMENT_KIND: IC50

Recorded IC50, per entry:
CCc1cc(O)ccc1-c1ccc2c(-c3nc(C4=CC[C@H](C)N([C@H]5C[C@@H](O)C5)C4)c[nH]3)n[nH]c2c1F [Example 265] ... 3.16 to 10 nM
CCc1cc(O)ccc1-c1ccc2c(-c3nc(C4=C[C@H](CC(=O)OC)NC4)c[nH]3)n[nH]c2c1F [Example 253] ... 3.16 to 10 nM
CCc1cc(O)ccc1-c1ccc2c(-c3nc(C4=C[C@H]([C@H](C)O)NC4)c[nH]3)n[nH]c2c1F [Example 310] ... 10 to 31.6 nM
CCc1cc(O)ccc1-c1ccc2c(-c3nc(C4=CC[C@H](C)N(CC(=O)NC)C4)c[nH]3)n[nH]c2c1F [Example 275] ... 10 to 31.6 nM
CCc1cc(O)ccc1-c1ccc2c(-c3nc(C4=CCN(CCCNS(C)(=O)=O)CC4)c[nH]3)n[nH]c2c1 [Example 103] ... 10 to 31.6 nM

Notebook: CCc1cc(O)ccc1-c1ccc2c(-c3nc(C4=CCN([C@H]5CC[C@H](O)CC5)C4)c[nH]3)n[nH]c2c1 [Example 128] , IC50 read as 3.16 to 10 nM

Notebook: CCc1cc(O)ccc1-c1ccc2c(-c3nc(C4=CCN(C(C)CN)CC4)c[nH]3)n[nH]c2c1F (centres unmarked) [Example 213] , IC50 read as 100 to 316 nM

Notebook: CCCN1CC=C(c2c[nH]c(-c3n[nH]c4c(F)c(-c5ccc(O)cc5CC)ccc34)n2)CC1 [Example 24] , IC50 read as 3.16 to 10 nM
